Source listed as ChEMBL document CHEMBL4400528.

pIC50 for assorted compounds
target: Lysophosphatidylserine lipase ABHD12 (Mus musculus, UniProt Q99LR1)
Sequence (Q99LR1 whole entry): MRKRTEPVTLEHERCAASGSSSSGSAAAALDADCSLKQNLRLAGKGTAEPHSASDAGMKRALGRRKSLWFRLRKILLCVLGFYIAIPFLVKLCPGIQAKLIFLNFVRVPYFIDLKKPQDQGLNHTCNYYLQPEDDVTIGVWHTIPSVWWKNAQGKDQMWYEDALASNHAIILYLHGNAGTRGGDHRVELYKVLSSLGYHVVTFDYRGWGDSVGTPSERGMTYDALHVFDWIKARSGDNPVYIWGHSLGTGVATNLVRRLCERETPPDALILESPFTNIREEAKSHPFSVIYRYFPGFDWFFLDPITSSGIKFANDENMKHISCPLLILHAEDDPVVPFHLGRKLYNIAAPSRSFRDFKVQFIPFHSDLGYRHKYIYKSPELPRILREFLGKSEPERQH
experiment_description: Inhibition of JJH350 binding to ABHD12 in mouse brain membrane proteome incubated for 20 mins by CuAAC fluorescence dependent gel-based competitive ABPP assay
Format: cell membranes
pIC50: −log10 of the molar value.

[
  {
    "smiles_repr": "COc1ccc(Oc2ccnc(N3CCC(NC(=S)Nc4cccnc4)CC3)c2)cc1",
    "pIC50": 5.54
  },
  {
    "smiles_repr": "Fc1ccc(Oc2ccnc(N3CCC(NC(=S)Nc4cccnc4)CC3)c2)cc1",
    "pIC50": 5.85
  },
  {
    "smiles_repr": "FC(F)(F)Oc1ccccc1Oc1ccnc(N2CCC(NC(=S)Nc3cccnc3)CC2)c1Cl",
    "pIC50": 7.02
  },
  {
    "smiles_repr": "FC(F)(F)Oc1ccc(Oc2ccnc(N3CCC(NC(=S)Nc4cccnc4)CC3)c2Cl)c(Cl)c1",
    "pIC50": 7.96
  },
  {
    "smiles_repr": "N#Cc1c(Oc2ccc(OC(F)(F)F)cc2)ccnc1N1CCC(NC(=S)Nc2cccnc2)CC1",
    "pIC50": 6.74
  }
]
